From: patent US20200339544A1

Reported IC50 values for the following compounds.
systemTested: DM EGFR (DoubleMutantEGFR, L828R/T790M) (Homo sapiens, UniProt P00533, L858R/T790M)
assayProtocol: Inhibition of DM EGFR kinase activity (ADP-Glo)
details: inhibition of kinase activity, EGFR DM (L828R/T790M)
Express it in nM; write the number only.

Consider the following illustrative entries.
compound: C=CC(=O)Nc1cc(Nc2cc(C(=O)c3ccc(C)cc3)ccn2)c(OC)cc1N(C)CCN(C)C [EGFR_3365_57]
unitsLabel: nM
IC50: 6.24
//
compound: C=CC(=O)Nc1cc(Nc2nccc(C(=O)c3ccc(N4CCC(N(C)C)CC4)cc3)n2)c(OC)cc1N(C)CCN(C)C [EGFR_3365_121a]
unitsLabel: nM
IC50: 0.96
//
compound: C=CC(=O)Nc1cc(Nc2cc(C(=O)c3ccc(-c4cnn(C)c4)cc3)ccn2)c(OC)cc1N(C)CCN(C)C [EGFR_3365_85]
unitsLabel: nM
IC50: 8.36
//
compound: C=CC(=O)Nc1cc(Nc2nccc(C(=O)c3ccc(NCCOC)cc3)n2)c(OC)cc1N(C)CCN(C)C [EGFR_3365_105]
unitsLabel: nM
IC50: 2.93
//
compound: C=CC(=O)Nc1cc(Nc2cc(C(=O)c3ccc(OCC)cc3)ccn2)c(OC)cc1N(C)CCN(C)C [EGFR_3365_52]
unitsLabel: nM
IC50: 6.41
//
compound: C=CC(=O)Nc1cc(Nc2cc(C(=O)c3ccccc3OC)ccn2)c(OC)cc1N(C)CCN(C)C [EGFR_3365_88]
unitsLabel: nM
IC50: 5.09

As a next step, examine the compound that follows.
Output measured IC50 for this item: C=CC(=O)Nc1cc(Nc2nccc(C(=O)c3ccc(N4CC(OC)C4)cc3)n2)c(OC)cc1N(C)CCN(C)C [EGFR_3365_61]
2.76

----------
assayProtocol: Permeability through monolayer of Caco-2 cells
Format: in vitro ADME
details: human; Caco-2 monolayer; Papp B-A/Papp A-B
readoutKind: efflux ratio at 2 h, 10 µM
Response field accepts a number only; no unit should be typed.

Observe how each entry below is paired with its result.
smilesStructure: C=CC(=O)Nc1cc(Nc2nccc(C(=O)c3ccc(OCC)cc3)n2)c(OC)cc1N(C)CCN(C)C
efflux ratio at 2 h, 10 µM: 1.5
//
smilesStructure: C=CC(=O)Nc1cc(Nc2nccc(C(=O)c3ccc(N(CC)CC)cc3)n2)c(OC)cc1N(C)CCN(C)C
efflux ratio at 2 h, 10 µM: 1.5

Supply efflux ratio at 2 h, 10 µM value. Item: `C=CC(=O)Nc1cc(Nc2cc(C(=O)c3ccccc3)ccn2)c(OC)cc1N(C)CCN(C)C`
0.8

In one line, give reported efflux ratio at 2 h, 10 µM of the entry `C=CC(=O)Nc1cc(Nc2nccc(C(=O)c3ccc(N4CC(OC)C4)cc3)n2)c(OC)cc1N(C)CCN(C)C` .
1.8

----------
assayProtocol: Chemical stability in human blood plasma
Type: in vitro ADME
details: pooled human blood plasma; 10 μm; 4 hours at 37° C.; substance amount remaining
readoutKind: Stability in blood plasma, % (%)
The reply should contain only the number, in %.

molecule: C=CC(=O)Nc1cc(Nc2nccc(C(=O)c3ccc(OC4CCCCC4)cc3)n2)c(OC)cc1N(C)CCN(C)C
unitsLabel: %
measured: 92.8

molecule: C=CC(=O)Nc1cc(Nc2nccc(C(=O)c3c(OC)cc(OC)cc3OC)n2)c(OC)cc1N(C)CCN(C)C
unitsLabel: %
measured: 90.7

molecule: C=CC(=O)Nc1cc(Nc2nccc(C(=O)c3ccc(N4CCC(C#N)CC4)cc3)n2)c(OC)cc1N(C)CCN(C)C
unitsLabel: %
measured: 99.3

molecule: C=CC(=O)Nc1cc(Nc2nccc(C(=O)c3ccc(N4CCC[C@@H](OC)C4)cc3)n2)c(OC)cc1N(C)CCN(C)C
unitsLabel: %
measured: 100.0

molecule: C=CC(=O)Nc1cc(Nc2nccc(C(=O)c3ccc(OC(C)C)cc3OC(C)C)n2)c(OC)cc1N(C)CCN(C)C
unitsLabel: %
measured: 100.0

Input `C=CC(=O)Nc1cc(Nc2cc(C(=O)c3ccc(OCCOC)cc3)ccn2)c(OC)cc1N(C)CCN(C)C` , output reported Stability in blood plasma, %.
96.3

Specify reported Stability in blood plasma, % for the molecule shown: `C=CC(=O)Nc1cc(Nc2cc(C(=O)c3ccc(OC)cc3OC)ccn2)c(OC)cc1N(C)CCN(C)C`
73.3

Fill in Stability in blood plasma, % for record `C=CC(=O)Nc1cc(Nc2nccc(C(=O)c3ccc(OC)cc3OC)n2)c(OC)cc1N(C)CCN(C)C`
100.0

Identify the reported Stability in blood plasma, % for the following entry. `C=CC(=O)Nc1cc(Nc2cc(C(=O)c3ccc(OCCC)cc3)ccn2)c(OC)cc1N(C)CCN(C)C`
89.0

Annotate the molecule `C=CC(=O)Nc1cc(Nc2nccc(C(=O)c3ccc(Oc4ccccc4)cc3)n2)c(OC)cc1N(C)CCN(C)C` with its measured Stability in blood plasma, %.
97.0

Write down Stability in blood plasma, % measured for item `C=CC(=O)Nc1cc(Nc2nccc(C(=O)c3ccc(N4CCC4)cc3)n2)c(OC)cc1N(C)CCN(C)C`
99.7

----------
System: HepG2 cells
assayProtocol: General cytotoxicity on HepG2 cells
Type: cell-based
details: therapeutic index, CC50 HepG2 / IC50 H1975
Parameter TI, CC50/IC50: see the listing below.

smilesStructure: C=CC(=O)Nc1cc(Nc2nccc(C(=O)c3ccccc3Br)n2)c(OC)cc1N(C)CCN(C)C
readoutKind: TI, CC50/IC50
measured: 1051
//
smilesStructure: C=CC(=O)Nc1cc(Nc2nccc(C(=O)c3ccc(OC)cc3OC)n2)c(OC)cc1N(C)CCN(C)C
readoutKind: TI, CC50/IC50
measured: 6549
//
smilesStructure: C=CC(=O)Nc1cc(Nc2nccc(C(=O)c3cccc(OC)c3)n2)c(OC)cc1N(C)CCN(C)C
readoutKind: TI, CC50/IC50
measured: 265

Quote TI, CC50/IC50 reported for `C=CC(=O)Nc1cc(Nc2nccc(C(=O)c3ccc(OCCC)cc3OCCC)n2)c(OC)cc1N(C)CCN(C)C` please.
56

Return reported TI, CC50/IC50. Input molecule: `C=CC(=O)Nc1cc(Nc2nccc(C(=O)c3ccc(N4CCC(N)CC4)cc3)n2)c(OC)cc1N(C)CCN(C)C`
17832

Assign TI, CC50/IC50 to the following record: `C=CC(=O)Nc1cc(Nc2nccc(C(=O)c3ccc(F)cc3)n2)c(OC)cc1N(C)CCN(C)C`
144

Tell me its TI, CC50/IC50 given `C=CC(=O)Nc1cc(Nc2nccc(C(=O)c3ccc(NCCOC)cc3)n2)c(OC)cc1N(C)CCN(C)C` as the entry.
2114

----------
In this section we review reported log10(IC50) values for a set of compounds.
Test system: H1975 (lung adenocarcinoma, DM, L828R/T790M)
assayProtocol: Antiproliferative activity on H1975 cells (Alamar Blue)
Type: cell-based
details: Homo sapiens, NCI-H1975; H1975 cells, average values obtained in several tests, Table 16; read-out: H1975 (DM) IC50
Log10 applied to IC50; unit prior to transform: nM.

compound: C=CC(=O)Nc1cc(Nc2cc(C(=O)c3ccc(OCC(C)C)cc3)ccn2)c(OC)cc1N(C)CCN(C)C [EGFR_3365_77]
measured: 2.40
--
compound: C=CC(=O)Nc1cc(Nc2cc(C(=O)c3ccc(N4CC(OC)C4)cc3)ccn2)c(OC)cc1N(C)CCN(C)C (racemic) [EGFR_3365_53]
measured: 1.65
--
compound: C=CC(=O)Nc1cc(Nc2cc(C(=O)c3ccc(OCCC)cc3)ccn2)c(OC)cc1N(C)CCN(C)C [EGFR_3365_50]
measured: 1.68

// Input: C=CC(=O)Nc1cc(Nc2nccc(C(=O)c3ccccc3Br)n2)c(OC)cc1N(C)CCN(C)C [EGFR_3365_12] . Output its log10(IC50) only.
1.33

Consider the compound C=CC(=O)Nc1cc(Nc2cc(C(=O)c3ccc(N4CCOCC4)cc3)ccn2)c(OC)cc1N(C)CCN(C)C.O=C(O)C(F)(F)F [EGFR_3365_5, 2,2,2-trifluoroacetate] . State its measured log10(IC50).
1.76

Hello, please tell me recorded log10(IC50) for this one: C=CC(=O)Nc1cc(Nc2cc(C(=O)c3ccccc3)ccn2)c(OC)cc1N(C)CCN(C)C [EGFR_3365_3]
1.65

Please report the measured log10(IC50) for C=CC(=O)Nc1cc(Nc2nccc(C(=O)c3ccc(OCCC)cc3OC)n2)c(OC)cc1N(C)CCN(C)C [EGFR_3365_101]
1.11

----------
Overview of reported Stability in blood plasma, % across a group of compounds:
assayProtocol: Chemical stability in human blood plasma
Format: in vitro ADME
details: pooled human blood plasma; 10 μm; 4 hours at 37° C.; substance amount remaining
Express it in %; write the number only.

Study these solved cases before continuing.
smilesStructure: C=CC(=O)Nc1cc(Nc2nccc(C(=O)c3cc4ccccc4n3C)n2)c(OC)cc1N(C)CCN(C)C
Stability in blood plasma, % (%): 83.3

smilesStructure: C=CC(=O)Nc1cc(Nc2nccc(C(=O)c3ccc(C)cc3)n2)c(OC)cc1N(C)CCN(C)C
Stability in blood plasma, % (%): 87.2

smilesStructure: C=CC(=O)Nc1cc(Nc2nccc(C(=O)c3ccc(NCCO)cc3)n2)c(OC)cc1N(C)CCN(C)C.O=CO
Stability in blood plasma, % (%): 95.2

smilesStructure: C=CC(=O)Nc1cc(Nc2nccc(C(=O)c3ccccc3[N+](=O)[O-])n2)c(OC)cc1N(C)CCN(C)C
Stability in blood plasma, % (%): 98.5

smilesStructure: C=CC(=O)Nc1cc(Nc2nccc(C(=O)c3ccc(OCC(C)C)cc3)n2)c(OC)cc1N(C)CCN(C)C
Stability in blood plasma, % (%): 81.7

Give reported Stability in blood plasma, % value for `C=CC(=O)Nc1cc(Nc2nccc(C(=O)c3ccc(OC(C)C)cc3)n2)c(OC)cc1N(C)CCN(C)C`
93.1

Could you please provide reported Stability in blood plasma, % for `C=CC(=O)Nc1cc(Nc2nccc(C(=O)c3ccc(N(C)C)cc3)n2)c(OC)cc1N(C)CCN(C)C` ? Thanks!
90.5
